Entries and their measured inhibition follow.
TARGET_UNDER_TEST: Microtubule-associated protein tau (Homo sapiens) (UniProt P10636)
Sequence (P10636 whole entry, looked up): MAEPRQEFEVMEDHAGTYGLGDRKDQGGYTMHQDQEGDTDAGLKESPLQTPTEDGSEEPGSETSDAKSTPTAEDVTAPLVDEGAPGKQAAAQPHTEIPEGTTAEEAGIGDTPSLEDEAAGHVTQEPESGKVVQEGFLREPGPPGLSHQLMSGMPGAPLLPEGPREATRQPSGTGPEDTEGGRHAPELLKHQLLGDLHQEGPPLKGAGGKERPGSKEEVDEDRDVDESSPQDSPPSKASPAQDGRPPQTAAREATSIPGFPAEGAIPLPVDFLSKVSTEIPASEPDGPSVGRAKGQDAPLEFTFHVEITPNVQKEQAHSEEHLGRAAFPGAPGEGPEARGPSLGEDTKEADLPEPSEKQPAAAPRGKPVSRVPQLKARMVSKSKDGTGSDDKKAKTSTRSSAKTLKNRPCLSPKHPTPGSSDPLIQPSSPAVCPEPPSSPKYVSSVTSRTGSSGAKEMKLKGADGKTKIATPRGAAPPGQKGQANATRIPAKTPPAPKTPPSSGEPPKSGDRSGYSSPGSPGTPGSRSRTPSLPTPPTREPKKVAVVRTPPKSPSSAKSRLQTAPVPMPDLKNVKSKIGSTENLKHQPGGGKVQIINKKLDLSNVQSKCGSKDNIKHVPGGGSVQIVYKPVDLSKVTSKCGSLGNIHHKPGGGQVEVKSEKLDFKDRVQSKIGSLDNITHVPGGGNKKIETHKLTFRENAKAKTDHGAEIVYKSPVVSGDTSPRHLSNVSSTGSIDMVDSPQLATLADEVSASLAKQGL
ASSAY_SUMMARY: blockers of AD brain-seeded tau fibril growth – biochemical, seed amplification, ThT fluorescence, primary screen (AID 2061166)
ASSAY_CONDITIONS: Recombinant tau seeded by AD brain, ThT fluorescence AUC; at 100 µM; hits give high values
The reply should contain only the number, in %.

Answer with the recorded inhibition of C=CCc1ccc(O)c(-c2ccc(O)c(CC=C)c2)c1 only. 93.5

Answer with the recorded inhibition of NC(=O)OCC(COC(N)=O)c1ccccc1 only. -8.84

Answer with the recorded inhibition of CCOc1nc2cccc(C(=O)O)c2n1Cc1ccc(-c2ccccc2-c2nn[nH]n2)cc1 only. 36.2

Others:
Answer with the recorded inhibition of N=c1ccc2nc3ccc(N)cc3sc-2c1 only. 100

Answer with the recorded inhibition of CN=c1ccc2nc3ccc(N)cc3sc-2c1 only. 100

Answer with the recorded inhibition of CCCOC(C(=O)OC1CCN(C)CC1)(c1ccccc1)c1ccccc1 only. 26.4

Answer with the recorded inhibition of Clc1cccc(Cl)c1NC1=NCCN1 only. -11.7

====

Entries and their measured inhibition follow.
TARGET_UNDER_TEST: Microtubule-associated protein tau (Homo sapiens)
ASSAY_SUMMARY: blockers of AD brain-seeded tau fibril growth – biochemical, seed amplification, ThT fluorescence, primary screen (AID 2061166)
ASSAY_CONDITIONS: Recombinant tau seeded by AD brain, ThT fluorescence AUC; at 100 µM; hits give high values
The reply should contain only the number, in %.

Examples from the recorded data:
Report inhibition from Microtubule-associated protein tau (Homo sapiens) testing of CCc1cc(C(N)=S)ccn1 40.9

Report inhibition from Microtubule-associated protein tau (Homo sapiens) testing of O=NN(CCCl)C(=O)NC1CCCCC1 14.1

Report inhibition from Microtubule-associated protein tau (Homo sapiens) testing of C#Cc1cccc(Nc2ncnc3cc4c(cc23)OCCOCCOCCO4)c1 -14.6

Report inhibition from Microtubule-associated protein tau (Homo sapiens) testing of CO/N=C(\C(=O)NC1C(=O)N2C(C(=O)[O-])=C(C[N+]3(C)CCCC3)CSC12)c1csc(N)n1 (stereo not given) 53.1

Others:
Report inhibition from Microtubule-associated protein tau (Homo sapiens) testing of Cc1cc(=O)n(-c2ccccc2)n1C 8.96

Report inhibition from Microtubule-associated protein tau (Homo sapiens) testing of CC(=O)NC(CS)C(=O)O (stereo not given) 5.01

Report inhibition from Microtubule-associated protein tau (Homo sapiens) testing of CCCCN1CCCCC1C(=O)Nc1c(C)cccc1C (stereo not given) 7.03

Report inhibition from Microtubule-associated protein tau (Homo sapiens) testing of Cc1nc2c([nH]1)CCN(C(=O)c1ccc(NC(=O)c3ccccc3-c3ccccc3)cc1)c1ccccc1-2 6.08

Report inhibition from Microtubule-associated protein tau (Homo sapiens) testing of CCN(CC)CC#CCOC(=O)C(O)(c1ccccc1)C1CCCCC1 (stereo not given) -0.433

Report inhibition from Microtubule-associated protein tau (Homo sapiens) testing of CCCCCCCCCC(=O)O 0.189

Report inhibition from Microtubule-associated protein tau (Homo sapiens) testing of Nc1cccc2c1CN(C1CCC(=O)NC1=O)C2=O (stereo not given) 42.8

====

TARGET_UNDER_TEST: Microtubule-associated protein tau (Homo sapiens)
ASSAY_SUMMARY: blockers of AD brain-seeded tau fibril growth – biochemical, seed amplification, ThT fluorescence, primary screen (AID 2061166)
ASSAY_CONDITIONS: Recombinant tau seeded by AD brain, ThT fluorescence AUC; at 100 µM
Calls of active or inactive are those of the source.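 Rule for the calls: active = mean tau seeding fluorescence area under 1% of vehicle, meaning inhibition above a set limit; inactive = the rest.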
Permitted responses: active, inactive

Kindly provide the recorded test outcome for the following compound: Nc1ccc(S(=O)(=O)c2ccc(N)cc2)cc1 inactive

Others:
Kindly provide the recorded test outcome for the following compound: O=C(O)c1cc(-c2ccccc2)nc2ccccc12 inactive

Kindly provide the recorded test outcome for the following compound: NC(=O)NO inactive

Kindly provide the recorded test outcome for the following compound: O=C(CCCCCCC(=O)Nc1ccccc1)NO inactive
